System: HepG2 cells
METHOD: cells
TEST PARAMETERS: at 6.25% of IC50, against CCl4
EXPERIMENTAL READOUT: cytoprotection on HepG2 cells

Reference set (4 entries):
| MOLECULE | ASSAY TARGET | cytoprotection on HepG2 cells |
| --- | --- | --- |
| CC(=O)OC(C)(C)C=CC(=O)C(C)(O)C1C(O)CC2(C)C3CC=C4C(C=C(OC(C)C)C(=O)C4(C)C)C3(C)C(=O)CC12C (centres unmarked) | HepG2 cells | −0.60 ± 1.11 |
| CC(=O)OC(C)(C)/C=C/C(=O)[C@](C)(O)[C@H]1[C@H](O)C[C@@]2(C)[C@@H]3CC=C4[C@H](C[C@H](O)C(=O)C4(C)C)[C@]3(C)C(=O)C[C@]12C | HepG2 cells | 12.45 ± 1.11 |
| CC(C)OC1=CC2C(=CCC3C2(C)C(=O)CC2(C)C(C(C)(O)C(=O)C=CC(C)(C)O)C(O)CC32C)C(C)(C)C1=O (centres unmarked) | HepG2 cells | −17.10 ± 1.54 |
| CC(=O)OC(C)(C)/C=C/C(=O)[C@](C)(O)[C@H]1[C@H](O)C[C@@]2(C)[C@@H]3CC=C4[C@@H](C=C(O[C@@H]5O[C@H](CO)[C@@H](O)[C@H](O)[C@H]5O)C(=O)C4(C)C)[C@]3(C)C(=O)C[C@]12C [E-Gluc, cucurbitacin E glucoside] | HepG2 cells | −2.36 ± 1.08 |

# input for lookup
For the record CC(C)(O)/C=C/C(=O)[C@](C)(O)[C@H]1[C@H](O)C[C@@]2(C)[C@@H]3CC=C4[C@@H](C=C(O)C(=O)C4(C)C)[C@]3(C)C(=O)C[C@]12C , what value of cytoprotection on HepG2 cells is listed for HepG2 cells?
4.55 ± 0.64
